FYI, the data here is from patent US20210032312A1.

- target system: T1, In house human CD8A-Fc (human, UniProt P01732 22-182, limits assumed)
- T1 construct: Captured on goat anti-human Fc on a ProteOn GLC chip; also called hCD8A-Fc; recombinant human CD8 alpha; not shown: linker with flag (and polyhistidine) tag and Fc of human IgG1
- T1 sequence (P01732 22-182 limits assumed): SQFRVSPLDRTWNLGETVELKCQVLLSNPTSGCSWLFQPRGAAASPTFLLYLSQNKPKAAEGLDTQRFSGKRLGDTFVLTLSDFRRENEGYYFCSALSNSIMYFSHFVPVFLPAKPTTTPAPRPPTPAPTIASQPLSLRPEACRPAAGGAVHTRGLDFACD
- experimental details: SPR (ProteOn), captured hCD8A-Fc
measurement name: koff (s⁻¹)

a = P282DR9P1359_G4 (designed binder, FN3 domain) LPAPKNLVVSRVTEDSARLSWTAPDAAFDSFEIAYPEWPPPGEAIVLTVPGSERSYDLTGLKPGPEYFVVIQGVKGGDPSFPLSAIFTTGGNHHHHH
b = P282FR9P1361_F7 (designed binder, FN3 domain) LPAPKNLVVSRVTEDSARLSWTAPDAAFDSFPIWYREYATGEAIVLTVPGSERSYDLTGLKPGTEYDVVITGVKGGYPSYPLSAIFTT
// compare measured koff between a and b ; output the lower one Respond with the label that goes with your answer.
a
